# experimental_target: Substance P (Cavia porcellus, UniProt P30547)
# Construct: Strips of longitudinal muscle (derived from terminal ileum of adult male guinea pigs); from tissue; host or cells: longitudinal muscle strips of terminal ileum, adult male guinea pigs (Charles River)
# Sequence (P30547 whole entry): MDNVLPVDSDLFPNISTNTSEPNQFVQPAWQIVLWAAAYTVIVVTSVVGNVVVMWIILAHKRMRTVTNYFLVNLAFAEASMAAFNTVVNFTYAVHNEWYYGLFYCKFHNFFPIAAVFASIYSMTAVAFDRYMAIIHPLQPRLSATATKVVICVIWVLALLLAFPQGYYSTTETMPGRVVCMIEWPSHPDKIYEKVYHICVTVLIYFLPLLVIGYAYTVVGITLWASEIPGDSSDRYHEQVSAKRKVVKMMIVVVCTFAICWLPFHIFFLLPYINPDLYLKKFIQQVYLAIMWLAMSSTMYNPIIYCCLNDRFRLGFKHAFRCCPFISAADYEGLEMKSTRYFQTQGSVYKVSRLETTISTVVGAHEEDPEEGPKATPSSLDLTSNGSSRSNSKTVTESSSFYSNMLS
# assay_comment: Guinea pig ileum test for Substance P antagonist effect
# Format: cell-based
# experimental_setup: isolated guinea pig ileum longitudinal muscle strips; Schild plot analysis; 5-10 min contact time; footnote a = limited data due to solubility, b = slope significantly different from -1; read-out: Substance P Antagonist pA2 (converted)
Residues, ends and D or L forms follow the SMILES beside them.
Assign a class from recorded Kb; defined classes: bottom range = under 200 nM, center range = from 200 nM up to 600 nM, top range = 600 nM and over

Record excerpt, results attached:
Sort into band: CN(C)CCNC(=O)[C@@H](Cc1c[nH]c2ccccc12)NC(=O)c1nc(C(Cc2c[nH]c3ccccc23)NC(=O)[C@@H]2CCCN2)sc1-c1ccccc1 (single isomer, unassigned) [Example 11]
top range

Kindly identify the class of CC(C)C[C@H](NC(=O)[C@@H](Cc1c[nH]c2ccccc12)NC(=O)c1nc([C@@H](Cc2c[nH]c3ccccc23)NC(=O)[C@@H]2CCCN2)sc1-c1ccccc1)C(=O)N(C)C(Cc1ccccc1)C(N)=O (stereo partly shown) [Example 22] .
bottom range

Input CC(C)c1sc([C@@H](Cc2c[nH]c3ccccc23)NC(=O)c2nc([C@@H](Cc3c[nH]c4ccccc34)NC(=O)[C@@H]3CCCN3)sc2-c2ccccc2)nc1C(=O)NC[C@@H](N)Cc1ccccc1 [Example 21] ; output its category
top range

Exercise: read the entry CC(C)c1sc([C@H](Cc2c[nH]c3ccccc23)NC(=O)[C@H](Cc2ccccc2)NC(=O)[C@@H](Cc2c[nH]c3ccccc23)NC(=O)[C@@H]2CCCN2)nc1C(=O)N[C@@H](Cc1ccccc1)C(N)=O [Example 5] (HELM PEPTIDE1{P.[dW].F.[CC(C)c1sc([C@H](Cc2c[nH]c3ccccc23)N[*:1])nc1C(=O)[*:2]].F.[am]}$$$$V2.0) and state which class it falls under.
bottom range

Looking at CN(C)CCNC(=O)[C@@H](Cc1c[nH]c2ccccc12)NC(=O)c1nc(C(Cc2c[nH]c3ccccc23)NC(=O)[C@@H]2CCCN2)sc1-c1ccccc1 (single isomer, unassigned) [Example 12] , which class would you pick?
top range

Continuing:
Band for CC(C)c1sc([C@@H](Cc2c[nH]c3ccccc23)NC(=O)[C@H](Cc2ccccc2)NC(=O)[C@@H](Cc2c[nH]c3ccccc23)NC(=O)[C@@H]2CCCN2)nc1CN(C)CCc1ccccc1 [Example 27] ?
top range

Classify this molecule: CC(C)C[C@H](NC(=O)[C@@H](Cc1c[nH]c2ccccc12)NC(=O)c1nc([C@H](N)Cc2c[nH]c3ccccc23)sc1-c1ccccc1)C(=O)O [Example 20]
top range

Please report the category associated with CC(C)C[C@H](NC(=O)[C@@H](Cc1c[nH]c2ccccc12)NC(=O)c1nc([C@@H](Cc2c[nH]c3ccccc23)NC(=O)[C@@H]2CCCN2)sc1-c1ccccc1)C(=O)O [Example 19] , nothing else.
top range

GET /class?item= CC(C)c1sc([C@@H](Cc2c[nH]c3ccccc23)NC(=O)[C@H](Cc2ccccc2)NC(=O)[C@@H](Cc2c[nH]c3ccccc23)NC(=O)[C@@H]2CCCN2)nc1C(=O)N[C@@H](Cc1ccccc1)C(N)=O [Example 4] (HELM PEPTIDE1{P.[dW].F.[CC(C)c1sc([C@@H](Cc2c[nH]c3ccccc23)N[*:1])nc1C(=O)[*:2]].F.[am]}$$$$V2.0)
center range

Sort into band: CC(C)C[C@H](NC(=O)[C@@H](Cc1c[nH]c2ccccc12)NC(=O)c1nc(C2Cc3c([nH]c4ccccc34)CN2)sc1-c1ccccc1)C(=O)N[C@@H](Cc1ccccc1)C(N)=O (single isomer, unassigned) [Example 8]
top range

State the class of the molecule shown: CC(C)C[C@H](NC(=O)[C@@H](Cc1c[nH]c2ccccc12)NC(=O)c1nc([C@@H](Cc2c[nH]c3ccccc23)NC(=O)[C@@H]2CCCN2)sc1-c1ccccc1)C(=O)N[C@@H](Cc1ccccc1)C(N)=O [Example 3]
bottom range

Form field 'band' for CC(C)C[C@H](NC(=O)[C@@H](Cc1c[nH]c2ccccc12)NC(=O)c1nc([C@@H](Cc2c[nH]c3ccccc23)NC(=O)[C@@H]2CCCN2)oc1-c1ccccc1)C(=O)N[C@@H](Cc1ccccc1)C(N)=O [Example 24]
top range

# bin lookup: classify CC(C)C[C@H](NC(=O)[C@@H](Cc1c[nH]c2ccccc12)NC(=O)c1nc(C2Cc3c([nH]c4ccccc34)CN2)sc1-c1ccccc1)C(=O)N[C@@H](Cc1ccccc1)C(N)=O (single isomer, unassigned) [Example 7] by its Kb
top range

Record CC(C)C[C@H](NC(=O)[C@@H](Cc1c[nH]c2ccccc12)NC(=O)c1nc([C@@H](Cc2c[nH]c3ccccc23)NC(=O)[C@@H]2CCCN2)sc1-c1ccccc1)C(=O)N[C@@H](Cc1ccccc1)C(=O)O [Example 18] — which class?
center range

Please indicate the class for CC(C)C[C@H](NC(=O)[C@@H](Cc1c[nH]c2ccccc12)NC(=O)[C@H](Cc1ccccc1)NC(=O)[C@@H](Cc1c[nH]c2ccccc12)NC(=O)[C@@H]1CCCN1)c1ncc(-c2ccccc2)[nH]1 [Example 17] (HELM PEPTIDE1{P.[dW].F.[dW].[CC(C)C[C@H](N[*:1])c1ncc(-c2ccccc2)[nH]1]}$$$$V2.0) based on its Kb.
center range
